Tested on: hemoglobin
Assay: Comparison of allosteric effector strength (right shift of oxygen equilibrium curve)
Type: biochemical
Settings: compounds of FIG. 1

{"molecule": "CC(C)(Oc1ccc(CC(=O)Nc2cc(Cl)cc(Cl)c2)cc1)C(=O)O [RSR-4]", "allosteric effector strength": "L3,5≈RSR-4>RSR-13"}
{"molecule": "Cc1cc(C)cc(NC(=O)Cc2ccc(OC(C)(C)C(=O)O)cc2)c1 [RSR-13]", "allosteric effector strength": "L3,5≈RSR-4>RSR-13"}
